assay target: recombinant human GR (Homo sapiens, UniProt P04150)
Sequence (P04150 1-777): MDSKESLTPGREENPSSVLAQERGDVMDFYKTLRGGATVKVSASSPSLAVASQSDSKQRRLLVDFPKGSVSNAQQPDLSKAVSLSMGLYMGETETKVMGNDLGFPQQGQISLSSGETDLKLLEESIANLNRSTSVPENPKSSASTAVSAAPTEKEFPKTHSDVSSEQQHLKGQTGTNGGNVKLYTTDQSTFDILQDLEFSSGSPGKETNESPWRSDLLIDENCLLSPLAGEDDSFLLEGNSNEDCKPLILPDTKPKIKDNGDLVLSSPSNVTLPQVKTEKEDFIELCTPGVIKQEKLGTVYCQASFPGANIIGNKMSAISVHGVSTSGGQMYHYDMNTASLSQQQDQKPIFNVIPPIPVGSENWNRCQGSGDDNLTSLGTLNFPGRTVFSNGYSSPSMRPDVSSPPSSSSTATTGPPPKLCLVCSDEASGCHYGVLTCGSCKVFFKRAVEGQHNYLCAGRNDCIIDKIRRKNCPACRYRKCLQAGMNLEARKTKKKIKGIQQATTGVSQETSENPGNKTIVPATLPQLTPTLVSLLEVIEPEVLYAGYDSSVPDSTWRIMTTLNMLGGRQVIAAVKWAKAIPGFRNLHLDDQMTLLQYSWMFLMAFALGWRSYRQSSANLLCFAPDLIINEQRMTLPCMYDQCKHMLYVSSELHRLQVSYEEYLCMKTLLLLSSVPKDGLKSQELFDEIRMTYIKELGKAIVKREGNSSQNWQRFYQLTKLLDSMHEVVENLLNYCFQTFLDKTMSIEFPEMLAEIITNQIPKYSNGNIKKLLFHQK
assay overview: Human Glucocorticoid Receptor (GR) Assay, fluorescence polarization
assay setup: GS Red tracer, incubated 2 h at r.t., XLfit model 205, read-out: GRhuFL_FP_v2 Mean IC50
pIC50: −log10 of the molar value.
reported metric: pIC50

Worked examples, 3 compounds total:
> print(dat)
                                   compound  reported.metric  measured.number
1  COc1cccc([C@@H](Oc2ccc3c(cnn3-c3ccc(F)cc3)c2)[C@H](C)NC(=O)C(C)(F)F)c1 [Example 302]            pIC50             8.49
2  Cc1cnc(C(=O)N[C@@H](C)[C@H](Oc2ccc3c(cnn3-c3ccc(F)cc3)c2)c2ccc(F)cc2C)s1 [Example 200]            pIC50             8.34
3  COc1cccc([C@@H](Oc2ccc3c(cnn3-c3ccc(F)cc3)c2)[C@H](C)NC(=O)C(C)C)c1 [Example 55]            pIC50             8.48

1 = C[C@H](NC(=O)C(F)(F)F)[C@H](Oc1ccc2c(cnn2-c2ccc(F)cc2)c1)c1ccc(F)c(F)c1 [Example 150]
2 = COCC(=O)N[C@@H](C)[C@H](Oc1ccc2c(cnn2-c2ccc(F)cc2)c1)c1ccc(SC)cc1 [Example 9]
*Q* Thinking about recorded pIC50 values, which is higher, 1 or 2 ? Indicate which entry you chose by stating its label.
*A* 2
(2: 8.70, 1: 8.34)

###

assay target: recombinant human GR (Homo sapiens)
assay overview: Human Glucocorticoid Receptor (GR) Assay, fluorescence polarization
assay setup: GS Red tracer, incubated 2 h at r.t., XLfit model 205, read-out: GRhuFL_FP_v2 Mean IC50
Counter-ions that a name gives are not always drawn.
reported metric: IC50 (nM)

> print(dat)
                                   compound  measured.number
1  Cc1ccc([C@@H](Oc2ccc3c(cnn3-c3ccc(F)cc3)c2)[C@H](C)NC(=O)c2ncc(C)s2)c(C)c1              4.9
2  C[C@H](NC(=O)C1(O)CC1)[C@H](Oc1ccc2c(cnn2-c2ccc(F)cc2)c1)c1ccc(C(F)(F)F)cc1              4.1
3  COc1cccc([C@@H](Oc2ccc3c(cnn3-c3ccc(F)cc3)c2)[C@H](C)NC(=O)[C@H]2CCCN2)c1 [Example 304, trifluoroacetic acid salt]              7.5
4  COc1ccc(F)cc1[C@@H](Oc1ccc2c(cnn2-c2ccc(F)cc2)c1)[C@H](C)NC(=O)C(C)(F)F              5.4

a = Cc1ccc(C)c([C@@H](Oc2ccc3c(cnn3-c3ccc(F)cc3)c2)[C@H](C)NC(=O)C(F)(F)F)c1
b = CSc1ccc([C@@H](Oc2ccc3c(cnn3-c3ccc(F)cc3)c2)[C@H](C)NC(=O)CO)cc1
*Q* Thinking about recorded IC50 values, which is higher, a or b ? Indicate which entry you chose by stating its label.
*A* a
